Cited source: paper PMC7576618

Experiment: SAD study: plasma pharmacokinetics after single oral TS-134
Assay type: in vivo, human
Conditions: both, human, plasma, oral, 10 mg, tmax, median; SAD Parts A and C; 10 mg fed (n = 3)
Quantity: Tmax (h)
Your answer should be a plain number; it is taken to be in h.

Look at this molecule and give its reported Tmax. N[C@]1(C(=O)O)[C@H]2[C@@H](C[C@@H]1F)[C@@H]2C(=O)O
4

----------
Assay: SAD study: urinary excretion
Format: in vivo, human
Details: both, human, urine, oral, 10 mg, CLr, mean (CV[%]), SAD Parts A and C; 10 mg fasted (n = 4)
Quantity: CL renal (mL/min)
Your answer should be a plain number; it is taken to be in mL/min.

Look at this compound and give its reported CL renal. N[C@]1(C(=O)O)[C@H]2[C@@H](C[C@@H]1F)[C@@H]2C(=O)O
89.8

----------
Assay: MAD study: urinary excretion
Type: in vivo, human
Conditions: both, human, urine, oral, 20 mg, CLr, mean (CV[%]), MAD Day 14; 20 mg (n = 8)
Quantity: CL renal (mL/min)
Your answer should be a plain number; it is taken to be in mL/min.

Look at this compound and give its reported CL renal. N[C@]1(C(=O)O)[C@H]2[C@@H](C[C@@H]1F)[C@@H]2C(=O)O [MGS0008]
103

----------
Test: SAD study: plasma pharmacokinetics after single oral TS-134
Type: in vivo, human
Conditions: both, human, plasma, oral, 10 mg, t1/2, mean (CV[%]); SAD Parts A and C; 10 mg fed (n = 3)
Quantity: half-life (h)
Your answer should be a plain number; it is taken to be in h.

Look at this compound and give its reported half-life. N[C@]1(C(=O)O)[C@H]2[C@@H](C[C@@H]1F)[C@@H]2C(=O)O
8.7

----------
Assay: SAD study: plasma pharmacokinetics after single oral TS-134
Assay type: in vivo, human
Details: both, human, plasma, oral, 20 mg, Cmax, mean (CV[%]); SAD Parts A and C; 20 mg fed (n = 3)
Quantity: Cmax (ng/mL)
Your answer should be a plain number; it is taken to be in ng/mL.

Look at this compound and give its reported Cmax. N[C@]1(C(=O)O)[C@H]2[C@@H](C[C@@H]1F)[C@@H]2C(=O)O [MGS0008]
60.2

----------
Test: MAD study: plasma pharmacokinetics after multiple oral dose titration of TS-134
Format: in vivo, human
Settings: both, human, plasma, oral, 60 mg, AUC0‐tau, mean (CV[%]), plasma; MAD Day 14, fed; 60 mg (n = 8)
Quantity: AUC

Look at this molecule and give its reported AUC. N[C@]1(C(=O)O)[C@H]2[C@@H](C[C@@H]1F)[C@@H]2C(=O)O
3100 ng·h/mL

----------
Test: SAD study: urinary excretion
Format: in vivo, human
Conditions: both, human, urine, oral, 5 mg, CLr, mean (CV[%]), SAD Parts A and C; 5 mg fasted (n = 6)
Quantity: CL renal (mL/min)
Your answer should be a plain number; it is taken to be in mL/min.

Look at this compound and give its reported CL renal. N[C@]1(C(=O)O)[C@H]2[C@@H](C[C@@H]1F)[C@@H]2C(=O)O
101

----------
Experiment: SAD study: plasma pharmacokinetics after single oral TS-134
Format: in vivo, human
Conditions: both, human, plasma, oral, 20 mg, t1/2, mean (CV[%]); SAD Parts A and C; 20 mg fasted (n = 3)
Quantity: half-life (h)
Your answer should be a plain number; it is taken to be in h.

Look at this compound and give its reported half-life. N[C@]1(C(=O)O)[C@H]2[C@@H](C[C@@H]1F)[C@@H]2C(=O)O [MGS0008]
6.96

----------
Assay: SAD study: urinary excretion
Format: in vivo, human
Settings: both, human, urine, oral, 20 mg, CLr, mean (CV[%]), SAD Parts A and C; 20 mg fed (n = 3)
Quantity: CL renal (mL/min)
Your answer should be a plain number; it is taken to be in mL/min.

Look at this compound and give its reported CL renal. N[C@]1(C(=O)O)[C@H]2[C@@H](C[C@@H]1F)[C@@H]2C(=O)O [MGS0008]
70.6

----------
Assay: SAD study: plasma pharmacokinetics after single oral TS-134
Format: in vivo, human
Settings: both, human, plasma, oral, 10 mg, Cmax, mean (CV[%]); SAD Parts A and C; 10 mg fasted (n = 4)
Quantity: Cmax

Look at this compound and give its reported Cmax. N[C@]1(C(=O)O)[C@H]2[C@@H](C[C@@H]1F)[C@@H]2C(=O)O [MGS0008]
60.6 ng/mL

----------
Assay: MAD study: plasma pharmacokinetics after multiple oral dose titration of TS-134
Type: in vivo, human
Conditions: both, human, plasma, oral, 10 mg, t1/2, mean (CV[%]), plasma; MAD Day 14, fed; 10 mg (n = 8)
Quantity: half-life (h)
Your answer should be a plain number; it is taken to be in h.

Look at this compound and give its reported half-life. N[C@]1(C(=O)O)[C@H]2[C@@H](C[C@@H]1F)[C@@H]2C(=O)O [MGS0008]
10.9

----------
Assay: SAD study: plasma pharmacokinetics after single oral TS-134
Format: in vivo, human
Details: both, human, plasma, oral, 20 mg, AUC0‐inf, mean (CV[%]); SAD Parts A and C; 20 mg fasted (n = 3)
Quantity: AUC (ng·h/mL)
Your answer should be a plain number; it is taken to be in ng·h/mL.

Look at this compound and give its reported AUC. N[C@]1(C(=O)O)[C@H]2[C@@H](C[C@@H]1F)[C@@H]2C(=O)O [MGS0008]
840

----------
Assay: SAD study: urinary excretion
Type: in vivo, human
Conditions: both, human, urine, oral, 20 mg, CLr, mean (CV[%]), SAD Parts A and C; 20 mg fasted (n = 3)
Quantity: CL renal (mL/min)
Your answer should be a plain number; it is taken to be in mL/min.

Look at this compound and give its reported CL renal. N[C@]1(C(=O)O)[C@H]2[C@@H](C[C@@H]1F)[C@@H]2C(=O)O [MGS0008]
73.9

----------
Assay: SAD study: plasma pharmacokinetics after single oral TS-134
Format: in vivo, human
Settings: both, human, plasma, oral, 5 mg, AUC0‐inf, mean (CV[%]); SAD Parts A and C; 5 mg fasted (n = 6)
Quantity: AUC
Reply with the number, then its unit.

Look at this compound and give its reported AUC. N[C@]1(C(=O)O)[C@H]2[C@@H](C[C@@H]1F)[C@@H]2C(=O)O
278 ng·h/mL

----------
Test: SAD study: plasma pharmacokinetics after single oral TS-134
Format: in vivo, human
Details: both, human, plasma, oral, 5 mg, tmax, median; SAD Parts A and C; 5 mg fasted (n = 6)
Quantity: Tmax (h)
Your answer should be a plain number; it is taken to be in h.

Look at this molecule and give its reported Tmax. N[C@]1(C(=O)O)[C@H]2[C@@H](C[C@@H]1F)[C@@H]2C(=O)O [MGS0008]
2

----------
Experiment: MAD study: urinary excretion
Assay type: in vivo, human
Conditions: both, human, urine, oral, 10 mg, CLr, mean (CV[%]), MAD Day 14; 10 mg (n = 8)
Quantity: CL renal
Reply with the number, then its unit.

Look at this molecule and give its reported CL renal. N[C@]1(C(=O)O)[C@H]2[C@@H](C[C@@H]1F)[C@@H]2C(=O)O
88.2 mL/min

----------
Test: MAD study: plasma pharmacokinetics after multiple oral dose titration of TS-134
Assay type: in vivo, human
Details: both, human, plasma, oral, 5 mg, AUC0‐tau, mean (CV[%]), plasma; MAD Day 14, fed; 5 mg (n = 8)
Quantity: AUC (ng·h/mL)
Your answer should be a plain number; it is taken to be in ng·h/mL.

Look at this compound and give its reported AUC. N[C@]1(C(=O)O)[C@H]2[C@@H](C[C@@H]1F)[C@@H]2C(=O)O [MGS0008]
233

----------
Experiment: SAD study: plasma pharmacokinetics after single oral TS-134
Type: in vivo, human
Details: both, human, plasma, oral, 10 mg, t1/2, mean (CV[%]); SAD Part B; 10 mg fed (n = 7)
Quantity: half-life (h)
Your answer should be a plain number; it is taken to be in h.

Look at this compound and give its reported half-life. N[C@]1(C(=O)O)[C@H]2[C@@H](C[C@@H]1F)[C@@H]2C(=O)O
8.49

----------
Experiment: SAD study: plasma pharmacokinetics after single oral TS-134
Format: in vivo, human
Conditions: both, human, plasma, oral, 20 mg, tmax, median; SAD Parts A and C; 20 mg fed (n = 3)
Quantity: Tmax (h)
Your answer should be a plain number; it is taken to be in h.

Look at this compound and give its reported Tmax. N[C@]1(C(=O)O)[C@H]2[C@@H](C[C@@H]1F)[C@@H]2C(=O)O [MGS0008]
2

----------
Test: SAD study: plasma pharmacokinetics after single oral TS-134
Type: in vivo, human
Settings: both, human, plasma, oral, 20 mg, AUC0‐inf, mean (CV[%]); SAD Parts A and C; 20 mg fed (n = 3)
Quantity: AUC (ng·h/mL)
Your answer should be a plain number; it is taken to be in ng·h/mL.

Look at this compound and give its reported AUC. N[C@]1(C(=O)O)[C@H]2[C@@H](C[C@@H]1F)[C@@H]2C(=O)O
677
